Biological target: T1, TNFR1 (Homo sapiens, UniProt P19438)
T1 chain: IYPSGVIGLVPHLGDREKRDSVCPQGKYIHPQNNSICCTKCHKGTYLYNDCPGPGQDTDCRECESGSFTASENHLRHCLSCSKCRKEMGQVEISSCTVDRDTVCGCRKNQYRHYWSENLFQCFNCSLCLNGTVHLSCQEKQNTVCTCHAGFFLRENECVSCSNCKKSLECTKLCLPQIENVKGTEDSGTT
Assay: yeast display SC50
Measurement kind: apparent Kd (screen) (nM)

QUERY: Requested read-out: apparent Kd (screen). Entry: E22T (designed binder) SMEEEVEKAAKEYEKKKKEAITKHLEKLKAKDKEAAERFLKELEEAAKEYAKDEAKTMSEEEAKRRAKKYKEKVLLSELSEEEQKEIKEAEEKLVRTILKYVEEAAK
RESULT: 0.539

P: V74I (designed binder) SMEEEVEKAAKEYEKKKKEAIEKHLEKLKAKDKEAAERFLKELEEAAKEYAKDEAKTMSEEEAKRRAKKYKEKILLSELSEEEQKEIKEAEEKLVRTILKYVEEAAK
Q: K17L (designed binder) SMEEEVEKAAKEYEKKLKEAIEKHLEKLKAKDKEAAERFLKELEEAAKEYAKDEAKTMSEEEAKRRAKKYKEKVLLSELSEEEQKEIKEAEEKLVRTILKYVEEAAK
QUERY: Given the listed records, identify the one among P and Q with higher apparent Kd (screen). Please respond with the label that marks your chosen entry.
RESULT: Q
(Q: 1.69 nM, P: 0.446 nM)
